# Target System: Steroidogenic factor 1 (Homo sapiens) (UniProt Q13285)
# Sequence (Q13285 whole entry, looked up): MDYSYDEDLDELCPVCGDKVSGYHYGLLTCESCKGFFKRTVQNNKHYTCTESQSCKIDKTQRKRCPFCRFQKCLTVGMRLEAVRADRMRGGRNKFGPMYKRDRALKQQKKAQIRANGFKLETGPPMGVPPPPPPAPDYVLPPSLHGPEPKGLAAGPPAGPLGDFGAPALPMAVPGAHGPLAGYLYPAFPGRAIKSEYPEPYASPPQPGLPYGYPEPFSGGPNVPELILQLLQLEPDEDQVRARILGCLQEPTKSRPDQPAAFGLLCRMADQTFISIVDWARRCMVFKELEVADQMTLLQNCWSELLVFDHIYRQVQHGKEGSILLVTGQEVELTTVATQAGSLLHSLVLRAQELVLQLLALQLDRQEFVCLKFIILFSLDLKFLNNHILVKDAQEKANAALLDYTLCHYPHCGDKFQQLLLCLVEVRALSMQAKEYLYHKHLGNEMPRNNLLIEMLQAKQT
# Assay Method Text: SF1 (NR5A1) inverse agonists, counter-screen for LRH-1 inverse agonist project, cell-based, luminescence, high throughput (AID 651614);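 further: cells cotransfected with StAR promoter reporter and SF1 expression vector; 0% = vehicle on cells with receptor and 100% = vehicle on cells lacking receptor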
# Experimental Setup: cell-based SF1 luciferase reporter, at 3.6 µM, stronger effect = higher value
Outcome label depends on inhibition relative to 50%: at/above gives yes, below gives no.

Incoming: # check: inhibition of Cc1cccc(-c2cc(NCCc3cccnc3)n3nccc3n2)c1 is greater than or equal to 50%
Outgoing: no

Incoming: # check: inhibition of CS(=O)(=O)N1CCN(c2ccc(NC(=O)CSc3nnc(-c4ccco4)o3)cc2)CC1 is greater than or equal to 50%
Outgoing: yes

Incoming: # check: inhibition of CN=c1scc(-c2cccs2)n1/N=C/c1ccccc1O is greater than or equal to 50%
Outgoing: yes

Incoming: # check: inhibition of COc1ccc(N=C(NN)c2ccc3ccccc3n2)cc1 is greater than or equal to 50%
Outgoing: no

Incoming: # check: inhibition of COC(=O)CC1(C(=O)OC)Oc2ccc(Br)cc2C(=O)N1c1cc(Cl)c(Cl)cc1Cl (stereo unspecified) is greater than or equal to 50%
Outgoing: no

Incoming: # check: inhibition of COc1ccc(CNc2ncnc3ccccc23)cc1 is greater than or equal to 50%
Outgoing: yes

Incoming: # check: inhibition of CCCN1Cc2cccc(C(=O)NC(C)c3cccs3)c2C1=O (stereo unspecified) is greater than or equal to 50%
Outgoing: no

Incoming: # check: inhibition of Cc1c(F)cccc1NS(=O)(=O)c1ccc(N2CCCC2=O)cc1 is greater than or equal to 50%
Outgoing: no

Incoming: # check: inhibition of CC(C)(C)c1ccc(-c2noc(CCC(N)=O)n2)cc1 is greater than or equal to 50%
Outgoing: yes

====

I'd be grateful if you could share measured inhibition for these entries.
# Assay Method Text: StAR promoter reporter inhibitors, counter-screen for LRH-1 inverse agonist project, cell-based, luminescence, high throughput (AID 651611)
# Experimental Setup: StAR promoter luciferase reporter counterscreen, at 3.6 µM, stronger effect = higher value
Field format: number, assumed %, no unit text.

Incoming: Would you mind telling me what inhibition value was observed for CC(=O)c1ccc(NC(=O)CN2C(=O)NC3(CCc4ccccc43)C2=O)cc1 (stereo not given) ?
Outgoing: 12.2

Incoming: Would you mind telling me what inhibition value was observed for Cc1cc(OCc2nc(N)nc(N)c2-c2ccc(Cl)c(Cl)c2)ccc1[N+](=O)[O-] ?
Outgoing: 70.7

Incoming: Would you mind telling me what inhibition value was observed for CCOC(=O)c1c(N)n(CCOC(=O)c2cccs2)c2nc3ccccc3nc12 ?
Outgoing: 0.69

Incoming: Would you mind telling me what inhibition value was observed for Cc1nc2ccccc2n1/N=C/c1ccc([N+](=O)[O-])o1 ?
Outgoing: 16.3

Incoming: Would you mind telling me what inhibition value was observed for O=[N+]([O-])c1ccc(N2CCCC2)cc1NC1CC1 ?
Outgoing: 0.53

Incoming: Would you mind telling me what inhibition value was observed for CN(C)c1ncnc2c1nnn2C1OC(CO)C(O)C1O (stereo not given) ?
Outgoing: 91.3

Incoming: Would you mind telling me what inhibition value was observed for COc1ccc(C(=O)Nc2ccc(S(=O)(=O)N3CCc4ccccc43)cc2)cc1 ?
Outgoing: 29.2

Incoming: Would you mind telling me what inhibition value was observed for Brc1ccc(C2=Nn3c(nnc3-c3n[nH]c4c3CCC4)SC2)cc1 ?
Outgoing: 50.6

Incoming: Would you mind telling me what inhibition value was observed for COc1ccc(OC)c(CCNC(=O)Cn2nc(C)c3c(C)n(-c4ccc(C)cc4)nc3c2=O)c1 ?
Outgoing: 38.8

Incoming: Would you mind telling me what inhibition value was observed for CC(=O)Nc1ccc(NC(=O)COC(=O)c2cc(S(=O)(=O)N3CCCC3)ccc2O)cc1 ?
Outgoing: 21
